# Tested on: LXRa homodimer (NR concentration 270 nM)
# measurementNotes: PBM binding z-score (relative to random genomic background probes); higher = stronger binding; sequences stand for … in GC…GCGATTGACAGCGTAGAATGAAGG
Classes based on PBM binding z-score: low band: < -0.3; middle band: ≥ -0.3 and < 0.4; high band: ≥ 0.4

INSERT INTO assay_data (residuestring, discretelabel) VALUES
  ('TCTTGTAGCTCAATAGAGGTTAAGAAAGTGCGCT', 'middle band'),
  ('CCTTACGGGTCAAGTTTATAGCACGGGTGGTACG', 'high band'),
  ('CGAACTAGGTCACAACAGGACAGTGAAGGATGAT', 'high band'),
  ('TCTAGCAAGCCAGAGGGTCACTCAAGAGGTACGG', 'low band'),
  ('CCAGACAGGTGAAAGGTAACTGAGTCTGGTACGC', 'low band'),
  ('CCACGGAGGACAACAGGAGGTCAGAGCTGCCAGA', 'high band'),
  ('TAGTCTAGGTCAGATCGGGCCAGTATACGCTATA', 'middle band'),
  ('ACAGCCAGGTGATGAAGGTAACTCAGGCTATCAT', 'low band'),
  ('CTCGAAAGGTCGGTTGAGGTGAGTATTCGGATAA', 'low band'),
  ('CGTACAAGGTCATAGGAGGTCAGTGAAGACAGAT', 'high band');

Data request: // bin(item) where item = "CGGACTGGGGCAGAAAGGTTACCATACCATCCGG"
Data returned: middle band

Data request: // bin(item) where item = "ACTAGTTAGTCAGCTGAGGTCACACACAATTCGG"
Data returned: high band
